- TARGET_SYSTEM: T1, human 5T4-His protein (human, UniProt Q13641 32-355)
- T1 construct: also called recombinant 5T4 protein (human 5T4-his tag); human 5T4 protein; not shown: His tag
- T1 sequence (looked up): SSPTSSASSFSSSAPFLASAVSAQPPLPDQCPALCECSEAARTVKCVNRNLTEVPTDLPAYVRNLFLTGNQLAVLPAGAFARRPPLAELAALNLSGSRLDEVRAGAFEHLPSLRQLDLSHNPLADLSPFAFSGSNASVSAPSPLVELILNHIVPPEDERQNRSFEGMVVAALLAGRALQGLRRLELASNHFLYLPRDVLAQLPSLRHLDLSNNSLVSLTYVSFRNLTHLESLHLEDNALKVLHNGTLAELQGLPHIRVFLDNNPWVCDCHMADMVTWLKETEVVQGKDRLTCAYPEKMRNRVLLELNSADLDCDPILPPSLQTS
- EXPERIMENT: SPR Biacore, Protein A capture
Reported koff values follow for various binders
Give just the numeric value; s⁻¹ need not be written.

109H7 chimeric antibody (antibody, V domains shown, chimeric mAb) VH: QVQLQQSGAELMKPGASVKLSCKATGYTFTGYWIEWVKQRPGQGLEWIGETLPGRGSTNYNEKFKGKATFTADTSSNIVYMQLSSLTIEDSAIYYCARGRRDFDYWGQGTTLTVSS VL: DIQMTQTTSSLSASLGDEVTISCSASQGINNYLNWYQQKPDGTVKLLIYYTSSLHSGVPSRFSGSGSGTDYSLTIINLEPEDIATYYCQQFSKLPFTFGSGTKLEIR    0.000391
257F1 chimeric antibody (antibody, V domains shown, chimeric mAb) VH: QVLLQQSGAEVARPGASVKLSCKASGYTFTSYGLNWLRQRTGQGLEWIGEIYPRSENTHYNEKFKGKATLTADKSSSTAYMELRSLTSEDSAVYFCARGDWDFDHWGQGTTLTVSS VL: EILLTQSPAIIPASPGEKVTITCSASSSVSYMNWYQQKPGSSPKIWIYGISNLASGVPARFSGSGSGTFFSFTINSMEAEDVATYYCQQRSSYPRTFGGGTKLEIK    0.000275

Now look at this entry.
Recorded koff (binder 267B5 chimeric antibody (antibody, V domains shown, chimeric mAb) VH: DVQFQESGPGLVKPSQSLSLTCSVTGYSITSSYYWNWIRQFPGDKLEWMGYISYDGSNNYNPSLKNRISITRDTSKKQFFLKLNSVTTEDTATYYCARSWDGGYAMDNWGQGTSVTVSS VL: SIVMTQTPKFLLVSAGDRVTITCKASQSVSNDVAWYQQKPGQSPKLLIYFASNRYTGVPDRFTGSGYGTVFTFTISTVQADDLAVYFCQQDYTSPWTFGGGTRLEIK ): 0.000255

// provenance: patent US20250154277A1
